tested on: Trichophyton mentagrophytes CBS.50148; experiment: minimal inhibitory concentration in Sabouraud medium; assay type: cell-based; conditions: Trichophyton mentagrophytes, CBS.50148, 288 h, 288 hours; read-out: minimal inhibitory concentration
parameter: log10 MIC (log10 of the value in µg/mL)
Please keep in mind that the values are log10 of MIC expressed in µg/mL.

# get_value(readout= log10 MIC, system= Trichophyton mentagrophytes CBS.50148) for Cc1ccccc1N1C(=O)CC(S(=O)(=O)C2CCCCC2)C1=O (stereo not drawn) 1.40

Please give the result for O=C1CC(S(=O)(=O)C2CCCCC2)C(=O)N1c1ccccc1Cl (stereo not drawn) too. 0.70

Next molecule up: O=C1CC(S(=O)(=O)C2CCCCC2)C(=O)N1c1ccc([N+](=O)[O-])cc1 (stereo not drawn) 2.00

What about COc1ccc(N2C(=O)CC(S(=O)(=O)C3CCCCC3)C2=O)cc1 (stereo not drawn) ? 2.00

Query Cc1ccc(N2C(=O)CC(S(=O)(=O)C3CCCCC3)C2=O)cc1 (stereo not drawn) next 0.70

What about this molecule? Cc1cccc(N2C(=O)CC(S(=O)(=O)C3CCCCC3)C2=O)c1 (stereo not drawn) 1.70

Same for O=C1CC(S(=O)(=O)C2CCCCC2)C(=O)N1c1cccc(Cl)c1 (stereo not drawn) 0.40

One more molecule: CC(=O)c1ccc(N2C(=O)CC(S(=O)(=O)C3CCCCC3)C2=O)cc1 (stereo not drawn) 1.40

Also need O=C1CC(S(=O)(=O)C2CCCCC2)C(=O)N1 (stereo not drawn) , thanks. 1.88

Now the same for O=C1CC(S(=O)(=O)C2CCCCC2)C(=O)N1c1cccc([N+](=O)[O-])c1 (stereo not drawn) 1.40

Try the molecule COC(=O)c1ccc(N2C(=O)CC(S(=O)(=O)C3CCCCC3)C2=O)cc1OC(C)=O (stereo not drawn) 0.40

Field entry: O=C1CC(S(=O)(=O)C2CCCCC2)C(=O)N1c1ccccc1[N+](=O)[O-] (stereo not drawn) 2.18

====

assay: LD50, intraperitoneal; settings: mouse, in vivo, ip, intraperitoneally, female mice
parameter: LD50 (mg/kg)
Enter your answer as a number in mg/kg; do not include the unit.

Entry O=C1CC(S(=O)(=O)C2CCCCC2)C(=O)N1c1ccccc1 (stereo not shown) has what LD50? 382

====

system: Candida albicans CBS.562; assay: minimal inhibitory concentration in Sabouraud medium; assay type: cell-based; settings: Candida albicans, CBS.562, 48 h, 48 hours
parameter: MIC (µg/mL)
Express the result in µg/mL but write the number alone.

May I ask what MIC has been recorded for Cc1ccc(N2C(=O)CC(S(=O)(=O)C3CCCCC3)C2=O)cc1 (centres unmarked) ? 50

// next record O=C1CC(S(=O)(=O)C2CCCCC2)C(=O)N1c1cccc(Cl)c1 (centres unmarked) 75

Repeat for the following compound: O=C1CC(S(=O)(=O)C2CCCCC2)C(=O)N1c1ccccc1[N+](=O)[O-] (centres unmarked) 150

Same read-out for O=C1CC(S(=O)(=O)C2CCCCC2)C(=O)N1c1ccc([N+](=O)[O-])cc1 (centres unmarked) ? 150

How about this compound: COc1ccc(N2C(=O)CC(S(=O)(=O)C3CCCCC3)C2=O)cc1 (centres unmarked) 150

Same again, this time with O=C1CC(S(=O)(=O)C2CCCCC2)C(=O)N1c1ccccc1Cl (centres unmarked) 50

Cool, now CC(=O)c1ccc(N2C(=O)CC(S(=O)(=O)C3CCCCC3)C2=O)cc1 (centres unmarked) 75

Proceed to Cc1cccc(N2C(=O)CC(S(=O)(=O)C3CCCCC3)C2=O)c1 (centres unmarked) 100

And what about the compound O=C1CC(S(=O)(=O)C2CCCCC2)C(=O)N1c1ccccc1 (centres unmarked) ? 100

Subsequent entry: Cc1ccccc1N1C(=O)CC(S(=O)(=O)C2CCCCC2)C1=O (centres unmarked) 100

// repeat for O=C1CC(S(=O)(=O)C2CCCCC2)C(=O)N1c1cccc([N+](=O)[O-])c1 (centres unmarked) and report 100

These data points were gathered from patent US4364958A.
